test system: MDA-MB-231 multicell spheroids, viability (%T/C); experiment: Anticancer human tumor MDA-MB-231 cell line growth inhibition [IpAb]; conditions: second compound 0.1 µM; first compound 0.0316 µM; active compounds read low;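 also: viability read after seven days of drug exposure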
Hi all, reminder that labels come from viability, T/C, split as bottom bin = under 50%, middle bin = from 50% up to 70%, top bin = 70% and over

Please review the entries below; each comes with its answer.
INSERT INTO measurements (compound, measured_on, classification) VALUES
  ('Cc1nc(NC(=O)N2CCCC2C(N)=O)sc1-c1ccnc(C(C)(C)C(F)(F)F)c1 (stereo not given) + CC(C)NCC(C(=O)N1CCN(c2ncnc3c2C(C)CC3O)CC1)c1ccc(Cl)cc1', 'MDA-MB-231 multicell spheroids, viability (%T/C)', 'top bin'),
  ('CC1(C)CCC(CN2CCN(c3ccc(C(=O)NS(=O)(=O)c4ccc(NCC5CCOCC5)c([N+](=O)[O-])c4)c(Oc4cnc5[nH]ccc5c4)c3)CC2)=C(c2ccc(Cl)cc2)C1 + CCN1CCN(Cc2ccc(Nc3ncc(F)c(-c4cc(F)c5nc(C)n(C(C)C)c5c4)n3)nc2)CC1', 'MDA-MB-231 multicell spheroids, viability (%T/C)', 'middle bin'),
  ('CC(C)n1nc(-c2ccc3oc(N)nc3c2)c2c(N)ncnc21 + CCN1CCN(Cc2ccc(Nc3ncc(F)c(-c4cc(F)c5nc(C)n(C(C)C)c5c4)n3)nc2)CC1', 'MDA-MB-231 multicell spheroids, viability (%T/C)', 'bottom bin'),
  ('CC1(C)CCC(CN2CCN(c3ccc(C(=O)NS(=O)(=O)c4ccc(NCC5CCOCC5)c([N+](=O)[O-])c4)c(Oc4cnc5[nH]ccc5c4)c3)CC2)=C(c2ccc(Cl)cc2)C1 + CC(C)NCC(C(=O)N1CCN(c2ncnc3c2C(C)CC3O)CC1)c1ccc(Cl)cc1', 'MDA-MB-231 multicell spheroids, viability (%T/C)', 'top bin'),
  ('Cc1nc(NC(=O)N2CCCC2C(N)=O)sc1-c1ccnc(C(C)(C)C(F)(F)F)c1 (stereo not given) + CCN1CCN(Cc2ccc(Nc3ncc(F)c(-c4cc(F)c5nc(C)n(C(C)C)c5c4)n3)nc2)CC1', 'MDA-MB-231 multicell spheroids, viability (%T/C)', 'bottom bin'),
  ('C=CCn1c(=O)c2cnc(Nc3ccc(N4CCN(C)CC4)cc3)nc2n1-c1cccc(C(C)(C)O)n1 + CCN1CCN(Cc2ccc(Nc3ncc(F)c(-c4cc(F)c5nc(C)n(C(C)C)c5c4)n3)nc2)CC1', 'MDA-MB-231 multicell spheroids, viability (%T/C)', 'middle bin'),
  ('C=CCn1c(=O)c2cnc(Nc3ccc(N4CCN(C)CC4)cc3)nc2n1-c1cccc(C(C)(C)O)n1 + CC(C)NCC(C(=O)N1CCN(c2ncnc3c2C(C)CC3O)CC1)c1ccc(Cl)cc1', 'MDA-MB-231 multicell spheroids, viability (%T/C)', 'top bin'),
  ('Cn1ncc(Cl)c1-c1cc(C(=O)NC(CN)Cc2cccc(F)c2)sc1Cl (stereo not given) + CCN1CCN(Cc2ccc(Nc3ncc(F)c(-c4cc(F)c5nc(C)n(C(C)C)c5c4)n3)nc2)CC1', 'MDA-MB-231 multicell spheroids, viability (%T/C)', 'middle bin'),
  ('CCCS(=O)(=O)Nc1ccc(F)c(C(=O)c2c[nH]c3ncc(-c4ccc(Cl)cc4)cc23)c1F + CC(C)NCC(C(=O)N1CCN(c2ncnc3c2C(C)CC3O)CC1)c1ccc(Cl)cc1', 'MDA-MB-231 multicell spheroids, viability (%T/C)', 'top bin'),
  ('CC(C)n1nc(-c2ccc3oc(N)nc3c2)c2c(N)ncnc21 + CC(C)NCC(C(=O)N1CCN(c2ncnc3c2C(C)CC3O)CC1)c1ccc(Cl)cc1', 'MDA-MB-231 multicell spheroids, viability (%T/C)', 'bottom bin');

Request: Which class holds Cn1nccc1Nc1nccc(-c2ccn(C(CO)c3ccc(Cl)c(F)c3)c(=O)c2)n1 (stereo not given) + CCN1CCN(Cc2ccc(Nc3ncc(F)c(-c4cc(F)c5nc(C)n(C(C)C)c5c4)n3)nc2)CC1 ?
Result: bottom bin

Request: Which class holds COc1c(OCCCN2CCOCC2)ccc2c3n(c(=NC(=O)c4cnc(N)nc4)nc12)CCN3 + CC(C)NCC(C(=O)N1CCN(c2ncnc3c2C(C)CC3O)CC1)c1ccc(Cl)cc1 ?
Result: middle bin

Request: Which class holds Cn1nccc1Nc1nccc(-c2ccn(C(CO)c3ccc(Cl)c(F)c3)c(=O)c2)n1 (stereo not given) + CC(C)NCC(C(=O)N1CCN(c2ncnc3c2C(C)CC3O)CC1)c1ccc(Cl)cc1 ?
Result: middle bin
